# target-desc: MLL1-WDR5 protein-protein interaction (Homo sapiens (Human), UniProt P61964)
# procedure-text: WDR5 TR-FRET assay (MLL1-WDR5 PPI inhibition)
# Type: binding
# experimental-conditions: 5 nM WDR5 protein, 10 nM peptide, read-out: IC50 (nM), MLL1-WDR5 PPI inhibitory activity
quantity-kind: IC50 (nM)
Give bare numbers, in nM.

Some molecules with recorded IC50:
C[C@@H]1CN(c2cc(F)c(-n3cc(C(=O)NC4CCN(C)CC4)nn3)cc2NC(=O)c2cnc(Cl)cc2C(F)(F)F)C[C@H](C)N1C [Example 52]: 287
CN1CCN(c2ccc(-n3cc(C(=O)NCCCN4CCOCC4)nn3)cc2NC(=O)c2ccc(Cl)cc2C(F)(F)F)CC1 [Example 46]: 458

Kindly review the next molecule as well.
Checklist item: IC50 tested on MLL1-WDR5 protein-protein interaction (Homo sapiens (Human), UniProt P61964), entry CN1CCN(c2cc(F)c(-n3cc(C(=O)NCCCN4CCOCC4)nn3)cc2NC(=O)c2c[nH]c(=O)cc2C(F)(F)F)CC1 [Example 8] , value?
21.2

---

Give measured inhibition at 1 h, 10000 nM for each item. Keep answers brief.
# target-desc: hERG (Homo sapiens (Human))
# Sequence (Q12809 whole entry): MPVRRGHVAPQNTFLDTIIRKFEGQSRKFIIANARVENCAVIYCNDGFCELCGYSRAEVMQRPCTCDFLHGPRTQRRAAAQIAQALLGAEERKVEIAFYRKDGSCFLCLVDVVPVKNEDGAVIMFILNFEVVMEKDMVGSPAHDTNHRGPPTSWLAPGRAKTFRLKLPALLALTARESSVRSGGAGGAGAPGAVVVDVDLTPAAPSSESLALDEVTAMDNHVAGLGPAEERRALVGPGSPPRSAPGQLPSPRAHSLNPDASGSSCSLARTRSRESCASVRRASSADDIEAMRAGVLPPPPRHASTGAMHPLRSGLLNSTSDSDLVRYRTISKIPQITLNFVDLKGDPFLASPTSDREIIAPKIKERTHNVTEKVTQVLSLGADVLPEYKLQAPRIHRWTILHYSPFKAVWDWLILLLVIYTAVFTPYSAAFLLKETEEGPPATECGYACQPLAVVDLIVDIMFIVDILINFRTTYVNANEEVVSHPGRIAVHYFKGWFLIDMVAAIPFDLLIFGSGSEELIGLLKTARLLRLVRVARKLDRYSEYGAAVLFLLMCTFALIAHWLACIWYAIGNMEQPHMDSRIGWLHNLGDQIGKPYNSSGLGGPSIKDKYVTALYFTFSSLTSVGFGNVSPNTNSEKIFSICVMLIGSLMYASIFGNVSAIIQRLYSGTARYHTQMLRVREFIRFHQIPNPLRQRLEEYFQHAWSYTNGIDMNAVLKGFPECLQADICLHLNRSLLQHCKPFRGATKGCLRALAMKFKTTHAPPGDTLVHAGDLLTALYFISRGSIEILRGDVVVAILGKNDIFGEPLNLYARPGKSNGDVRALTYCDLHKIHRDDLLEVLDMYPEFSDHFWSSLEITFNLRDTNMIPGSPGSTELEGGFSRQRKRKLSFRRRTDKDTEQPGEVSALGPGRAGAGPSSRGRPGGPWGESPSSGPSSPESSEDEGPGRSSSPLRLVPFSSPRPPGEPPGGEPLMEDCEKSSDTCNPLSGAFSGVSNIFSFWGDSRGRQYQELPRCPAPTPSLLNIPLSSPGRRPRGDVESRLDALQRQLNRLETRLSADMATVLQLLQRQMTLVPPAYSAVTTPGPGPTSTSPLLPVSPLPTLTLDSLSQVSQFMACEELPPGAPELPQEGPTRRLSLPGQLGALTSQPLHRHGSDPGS
# procedure-text: hERG radioligand binding assay
# experimental-conditions: human, hERG membrane stocks (membrane preparation), probe 3H radio ligand (not named), max dose 10,000 nM, read-out: % Inh at Max dose
Give bare numbers, in %.

Some solved cases for reference:
CN1CCN(c2cc(F)c(-n3cc(C(=O)NCCCN4CCOCC4)nn3)cc2NC(=O)c2cnc(Cl)cc2C(F)(F)F)CC1 [Compound 7]: 11.8
C[C@H]1CN(c2ccc(-n3cc(C(=O)NCCCN4CCOCC4)nn3)cc2NC(=O)c2cnc(Cl)cc2C(F)(F)F)CCN1C [Compound 9]: 6.39
CN(CCOc1ccc(NS(C)(=O)=O)cc1)CCc1ccc(NS(C)(=O)=O)cc1 [Dofetilide]: 99.9

Now, please, on to the next molecule.
Look at this molecule and give its reported inhibition at 1 h, 10000 nM. CN1CCN(c2ccc(-n3cc(C(=O)NCCCN4CCOCC4)nn3)cc2NC(=O)c2cnc(Cl)cc2C(F)(F)F)CC1 [Compound 3]
3.31

---

I'd be grateful if you could share measured IC50 for these entries.
# target-desc: MLL1-WDR5 protein-protein interaction (Homo sapiens (Human))
# procedure-text: WDR5 TR-FRET assay (MLL1-WDR5 PPI inhibition)
# Type: binding
# experimental-conditions: 5 nM WDR5 protein, 10 nM peptide, read-out: IC50 (nM), MLL1-WDR5 PPI inhibitory activity
One number for each entry, in nM.

Solved entries (count: 4):
COc1cc(C(F)(F)F)c(C(=O)Nc2cc(-n3cc(C(=O)NC4CCN(C)CC4)nn3)c(F)cc2N2C[C@@H](C)N(C)[C@@H](C)C2)cn1: 618
CCN(CC)C(=O)c1cn(-c2cc(NC(=O)c3cnc(Cl)cc3Cl)c(N3C[C@@H](C)N(C)[C@@H](C)C3)cc2F)nn1: 1160
C[C@@H]1CN(c2cc(F)c(-n3cc(C(=O)N4CCN(C)CC4)nn3)cc2NC(=O)c2cnc(Cl)cc2Cl)C[C@H](C)N1C: 2170
C[C@@H]1CN(c2cc(F)c(-n3cc(C(=O)NCCCN4CCOCC4)nn3)cc2NC(=O)c2c[nH]c(=O)cc2C(F)(F)F)C[C@H](C)N1C: 7.23

What value of IC50 has been reported for the following compound? CCN(CC)C(=O)c1cn(-c2cc(NC(=O)c3cnc(F)cc3C(F)(F)F)c(N3C[C@@H](C)N(C)[C@@H](C)C3)cc2F)nn1
535
